- Tested on: Hek293T
- Assay summary: Primary qHTS to identify gynecologic anti-cancer compounds using libraries of approved drugs and bioactive compounds (AID 1345084); further: on the % scale 0 is the no-effect control and ±100 the full control effect; nearly all actives have a fitted effect of over 55% in size
- Stated conditions: Gynecologic cancer cell panel viability, ATPlite luminescence, 48 h, control line for the selectivity index; series mostly up to 57.5 µM
Results filed as inconclusive are left out. The source made the active and inactive calls. The call rests on the fitted dose curve; in most records, active means well fitted cell-killing curve with a large enough effect; inconclusive means small, poorly fitted or top-dose-only effect, or effect the other way; inactive means flat fitted curve, though single readings scatter.
Measurement kind: activity change, negative = cytotoxicity

Compound: COc1cc(/C=C/C(=O)O[C@H]2[C@@H]3C=CO[C@@H](O[C@@H]4O[C@H](CO)[C@@H](O)[C@H](O)[C@H]4O)[C@@H]3[C@@]3(CO)O[C@@H]23)ccc1O
Assayed target: Hek293T
Measurement kind: activity change, negative = cytotoxicity
Assay result: inactive

Compound: C/C=C(\C)C(=O)OC1C(C)C2(O)C3C=C(C)C(=O)C3CC(CO)=CC2C2C(C)(C)C12OC(C)=O (centres undefined)
Assayed target: Hek293T
Measurement kind: activity change, negative = cytotoxicity
Assay result: inactive

Compound: COc1cc(C(CO)C(OC2OC(CO)C(O)C(O)C2O)c2ccc(O)c(OC)c2)ccc1O (centres undefined)
Assayed target: Hek293T
Measurement kind: activity change, negative = cytotoxicity
Assay result: inactive

Compound: CNC(C)C(=O)NC(C(=O)N1CCCC1C(=O)Nc1cccc2ncccc12)C(C)C (centres undefined)
Assayed target: Hek293T
Measurement kind: activity change, negative = cytotoxicity
Assay result: inactive

Given item C[C@@H]1O[C@@H](O[C@H]2[C@H](O)[C@@H](O[C@@H]3O[C@H](CO)[C@H](O)[C@H](O)[C@H]3O)[C@H](O[C@H]3CC[C@@]4(C)C(CC[C@]5(C)C4CC=C4[C@@H]6CC(C)(C)CC[C@]6(C(=O)O[C@@H]6O[C@H](CO)[C@@H](O)[C@H](O)[C@H]6O)CC[C@]45C)C3(C)C)O[C@@H]2C(=O)O)[C@H](O)[C@H](O)[C@H]1O (some centres undefined) , the value recorded as its activity change, negative = cytotoxicity is -2.99% [at 11.6 µM] (inactive)

Form field activity change, negative = cytotoxicity, entry CC(=O)O[C@H]1[C@H](OC(=O)C(C)C)[C@]2(C)OC3(CC[C@]2(C)[C@H]2CCC[C@]4(CO4)[C@]12C)COC(=O)C3 (some centres undefined) : inactive

Summary for this compound, O=C1OC(c2ccc(O)cc2)C(O)=C1Cc1ccccc1 (centres undefined) : activity change, negative = cytotoxicity is inactive

Just so you know, measured activity change, negative = cytotoxicity for `CC[C@@H]1C(=O)O[C@]23C=C[C@@H]4C(C(=O)OC)=CO[C@H](O[C@@H]12)[C@@H]43` came out at inactive

Reported activity change, negative = cytotoxicity of COC1OC(OC)C(O)(CCC2(C)C(C)CCC3(C)C2CC(O)C(O)C32CO2)C1O (centres undefined) : inactive

====

- Tested on: HEK293T
- Assay summary: qHTS assay to identify novel small-molecules to repurpose for Merkel cell carcinoma treatment (AID 1296009); further: nearly all actives have a fitted effect of over 60% in size
- Stated conditions: MCC and control cell lines, CellTiter-Glo viability, 72 h; at 44.8 µM (top of the series) unless noted
Records with an inconclusive call do not appear. Active and inactive are the calls of the source. The call rests on the fitted dose curve; in most records, active means well fitted inhibition curve with a large enough effect; inconclusive means small, poorly fitted or top-dose-only effect; inactive means flat fitted curve, though single readings scatter.

Compound: C[C@@H]1C(=O)O[C@H](C)[C@H]1C[C@@H](O)[C@](C)(O)[C@H]1CC[C@@]2(O)C3=CC(=O)[C@@H]4C[C@@H](O)[C@@H](O)C[C@]4(C)C3CC[C@]12C (stereo partly drawn)
outcome: inactive [at 17.4 µM]
--
Compound: CC(=O)OC1CC2(C)C(CCC(C)C23Cc2c(O)cc4c(c2O3)CNC4=O)C(C)(C)C1O (stereo not drawn)
outcome: inactive [at 17.4 µM]
